Assay: Lipophilicity, log D of compound at pH 7.4 by shake-flask method
Format: physicochemical
Settings: buffer
# note: boundary value 3 maps to No; logD below it maps to Yes

Data request: Strictly below 3 in logD? "C[C@@H]1Cc2c(ccc3[nH]ncc23)[C@@H](c2ccc(NC3CN(CCCF)C3)cn2)N1CC(F)(F)F"
Data returned: Yes

Data request: Could you please tell me whether logD recorded for "COc1cc2[nH]ncc2c2c1[C@@H](c1ccc(NC3CN(CCCF)C3)cn1)N(CC(F)(F)F)[C@H](C)C2" is less than 3?
Data returned: Yes

Data request: # TODO verify logD < 3 strictly for this compound: "C[C@@H]1Cc2c(c(F)cc3[nH]ncc23)[C@@H](c2ccc(NC3CN(CCCF)C3)cn2)N1CC(F)(F)F"
Data returned: Yes

Data request: Check if logD falls below 3 for "C[C@@H]1Cc2c(cc(F)c3[nH]ncc23)[C@@H](c2ccc(NC3CN(CCCF)C3)cn2)N1CC(F)(F)F" .
Data returned: No

Data request: Record "C[C@@H]1Cc2c(c(O)cc3[nH]ncc23)[C@@H](c2ccc(NC3CN(CCCF)C3)cn2)N1CC(F)(F)F" : is its logD strictly below 3?
Data returned: Yes
